- System: ACHN
- Experimental Protocol: NCI tumour cell line growth inhibition, 48 h
Activity calls are given as the source filed them. Rule as the data show it: active = GI50 up to about 1.1 µM and inactive = higher.

| Molecule | GI50 |
| --- | --- |
| Nc1cc2ncnn2c(SCC(=O)N/N=C/C(Br)=C\c2ccccc2)n1 | 16.9 µM (inactive) |
| CN1C(=O)C(=CNc2ccccc2[N+](=O)[O-])C(=O)N(C)C1=O | > 100 µM (inactive) |
| CO[C@H]1C[C@H](O[C@H]2CC[C@]3(C=O)[C@H]4CC[C@]5(C)[C@@H](C6=CC(=O)OC6)CC[C@]5(O)[C@@H]4CC[C@]3(O)C2)O[C@H](C)[C@H]1O[C@@H]1O[C@H](CO)[C@@H](O)[C@H](O)[C@H]1O | 9.16e-06 µM (active) |
| CN1CCOC1(C)c1ccccc1 (stereo not given) | > 100 µM (inactive) |
| CCCCCCCCOCC(O)CO (stereo not given) | > 100 µM (inactive) |

====

- System: RPMI-8226
- Experimental Protocol: NCI tumour cell line growth inhibition, 48 h
Activity calls are given as the source filed them. No stated cut-off is given here; in the data, active = GI50 up to about 1.1 µM and inactive = higher.
Outcomes: true (1) for active, false (0) for inactive

| Molecule | Group Label |
| --- | --- |
| C=C1C[C@@H](O)C[C@@]2(C)C[C@@H]3OC(=O)C(=C)[C@@H]3C[C@H]12 | false (0) |
| COc1ccc(C2(CC(C)C)CCNC2)cc1OC (configuration not stated) | false (0) |
| CCC1(CC)C(=O)CC[C@@]2(C)C1=CC[C@H]1[C@@H]3CC[C@H](O)[C@@]3(C)CC[C@@H]12 | false (0) |
| O=C1Nc2ccccc2/C1=C1/Nc2ccccc2/C1=N/OCCO | false (0) |
| CC(=O)Nc1cc(N(CCOS(C)(=O)=O)CCOS(C)(=O)=O)ccc1N=O | false (0) |
| COc1cc(NS(C)(=O)=O)ccc1Nc1ccnc2ccc3[nH]ccc3c12 | false (0) |
| CCOc1ccc(/N=N/c2ccc3cc(/C(C)=N/NC(=O)/C(C#N)=C\c4ccc(N(CCC#N)CCC#N)cc4)c(=O)oc3c2)cc1 | false (0) |
| CN(CC(=O)O)c1ncc2c(n1)C=CCC2 | false (0) |
| O=C(CCn1[nH]c(=O)c(Cl)c(Cl)c1=O)NO | false (0) |
| CC12C3CC4C5CC(C(C53)[C@@H]1NCc1ccccc1)C42 (some centres not stated) | false (0) |
| CN(C)CCOc1cc2c(c3ccccc13)-c1ccccc1C2=O | false (0) |
| COc1ccc(/C=C2/C(=O)N(C(=O)c3ccc(Cl)cc3)N=C2C)cc1OC | false (0) |
| O/N=C1\CCc2cc3c(cc21)CCC3 | false (0) |
| CN(C)C(=O)C(F)(F)C(c1ccc(Br)cc1)C1C(=O)N(C)C(=O)N(C)C1=O (configuration not stated) | false (0) |
| Cn1c(=O)n2n(c1=O)C1C(=CC2)C2C=CC1n1c(=O)n(C)c(=O)n12 (configuration not stated) | false (0) |
| NC(=O)c1ccccc1[N+](=O)[O-] | false (0) |
| CN(C)CCNC(=O)c1cc(Cl)cc2cc3ccccc3nc12 | true (1) |
| CCN(CC)CCN1C(=O)CC2[C@@H]3CCc4cc(OC)ccc4C3CC[C@]2(C)C1=O (some centres not stated) | false (0) |
| Cc1ccc(S(=O)(=O)N/N=C2\CC3CC4CCC2C4C3)cc1 (configuration not stated) | false (0) |
| CCOC(=O)C1(C(F)(F)F)N=C(CC)OC(N2CCOCC2)=N1 (configuration not stated) | false (0) |
| COC12OCCN(CCO)C1=CC(=O)C1(C)N=NC(C)C12 (configuration not stated) | false (0) |
| O=C(O)CCC(=O)c1ccc2c(c1)C(C(=O)O)CC2 (configuration not stated) | false (0) |
